Source: patent US8551999B2

parameter: melting point

Br.C[C@H]1CN(C(=O)c2cc3ccc(Oc4ccc(NC(=O)c5ccc(OC(F)(F)F)cc5)cn4)cc3n2C)CCN1Cc1ccc(OCC(F)(F)F)cc1: 199.4 to 203.1 °C
CCCCCCCCOc1ccc(CN2CCN(C(=O)c3cc4cc(Oc5ccc(N(C)C(=O)c6ccc(C(F)(F)F)cc6)cn5)ccc4n3C)CC2)cc1.O=C(O)/C=C\C(=O)O: 125 to 126 °C
Br.Cc1c(Oc2ccc(N(C)C(=O)c3ccc(C(F)(F)F)cc3)cn2)ccc2c1cc(C(=O)N1CCN(Cc3ccc(C#N)cc3)CC1)n2C: 249 to 252 °C

get_value(item= `Br.CN(C(=O)c1ccc(C(F)(F)F)cc1)c1ccc(Oc2ccc3cc(C(=O)N4CCN(Cc5ccc(C#N)cc5)CC4)n(C)c3c2)nc1` , readout=melting point) returns 267 to 270 °C
